Each item that follows carries a reported phenotypically active.
test system: A549-TP53BP1-CLTA; test: phenotypically active (imaging signature differs from DMSO and reproducible) at any of 0.3-9 uM (binary (1 = active, 0 = inactive)); higher = active; settings: treatment time: 24 h
Structures can show the parent of a compound that is named as a salt.
Answer as a number with no unit attached.

Examples with their reported phenotypically active follow.
MOLECULE	ASSAY_SYSTEM	READOUT_NUMBER
C/C=C1\CN2CC[C@]34c5cc(OC)ccc5N5C(=O)C(O)OC[C@@H]([C@H]53)[C@H]1C[C@H]24 (stereo partly specified)	A549-TP53BP1-CLTA	0
Cc1cc2c(C(C)C)c(O)c(O)c(C=O)c2c(O)c1-c1c(C)cc2c(C(C)C)c(O)c(O)c(C=O)c2c1O	A549-TP53BP1-CLTA	1
O[C@H]1[C@H](O)[C@@H](O)CN2CC[C@H](O)[C@H]12	A549-TP53BP1-CLTA	0
N[C@H]1C[C@@H]1c1ccccc1	A549-TP53BP1-CLTA	0
c1ccc([C@@H]2C[C@H]2NC2CCNCC2)cc1 [GSK LSD 1 dihydrochloride]	A549-TP53BP1-CLTA	0

INPUT: // map CCN1C[C@@]2(COC)C3[C@@H](OC)[C@H]4[C@H]1C3([C@@H]1C[C@@]3(O)[C@H](OC(=O)c5ccccc5)[C@@H]1[C@]4(OC(C)=O)[C@@H](O)[C@@H]3OC)[C@H](OC)C[C@H]2O to recorded phenotypically active (system: A549-TP53BP1-CLTA)
OUTPUT: 0

* * *

test system: A549-ACTB-RAB5A; assay: phenotypically active (imaging signature differs from DMSO and reproducible) at any of 0.3-9 uM (binary (1 = active, 0 = inactive)); higher = active; conditions: treatment time: 24 h
Give your call using only these classes: 1.0 for active, 0.0 for inactive

COMPOUND	DISCRETE_LABEL
COc1cc2c(c(OC)c1OC)-c1ccc(O)c(=O)cc1[C@@H](N)CC2	1.0

INPUT: Record request — test call for C/C(O)=C(/C#N)C(=O)Nc1cc(Br)ccc1Br
OUTPUT: 0.0

INPUT: Record request — test call for C/C=C(/C)C(=O)O[C@H]1C(C)=C2[C@H]([C@@H]1OC(=O)CCCCCCC)[C@@](C)(OC(C)=O)C[C@H](OC(=O)CCC)[C@@]1(O)[C@H]2OC(=O)[C@@]1(C)O
OUTPUT: 1.0

INPUT: Record request — test call for CC[C@H]1C[N@@]2CC[C@H]1C[C@H]2[C@@H](O)c1ccnc2ccc(O)cc12 [Hydrocupreine]
OUTPUT: 0.0

INPUT: Record request — test call for C[C@@H]1O[C@@H](O[C@H]2C[C@@H](O)[C@]3(CO)[C@H]4[C@H](O)C[C@]5(C)[C@@H](C6=CC(=O)OC6)CC[C@]5(O)[C@@H]4CC[C@]3(O)C2)[C@H](O)[C@H](O)[C@H]1O [Strophantine octahydrate]
OUTPUT: 1.0

INPUT: Record request — test call for C[C@]12CC[C@H]3[C@@H](CC[C@]4(O)C[C@@H](O)CC[C@]34C=O)[C@@]1(O)CC[C@@H]2C1=CC(=O)OC1
OUTPUT: 1.0

INPUT: Record request — test call for CC1=CC(=O)C2=C(C)C[C@H](O)[C@@H]3[C@H](OC(=O)[C@H]3C)[C@@H]12 [Austricine hydrate]
OUTPUT: 0.0

INPUT: Record request — test call for BrC1C(Br)C(Br)C(Br)C(Br)C1Br (stereo not drawn)
OUTPUT: 0.0

Origin of values: the supplement of paper PMC7411054
